// reported EC50 (μM), HIV-1ERS104pre (wild-type SI) per item
tested on: HIV-1ERS104pre (wild-type); assay: p24 Gag inhibition in PHA-PBMCs, HIV-1ERS104pre; assay type: cell-based; conditions: mean ± 1 SD
Number in µM, nothing else.

Please review the following examples before continuing.
CC(C)(C)NC(=O)[C@@H]1CN(Cc2cccnc2)CCN1C[C@@H](O)C[C@@H](Cc1ccccc1)C(=O)N[C@H]1c2ccccc2C[C@H]1O
0.043
CCC[C@@]1(CCc2ccccc2)CC(O)=C([C@H](CC)c2cccc(NS(=O)(=O)c3ccc(C(F)(F)F)cn3)c2)C(=O)O1
0.12

# input For the compound Cc1cccc(C)c1OCC(=O)N[C@@H](Cc1ccccc1)[C@@H](O)C[C@H](Cc1ccccc1)NC(=O)[C@H](C(C)C)N1CCCNC1=O , what EC50 (μM), HIV-1ERS104pre (wild-type SI) is on record?
# output 0.034

# input Sample COC(=O)N[C@H](C(=O)N[C@@H](Cc1ccccc1)[C@@H](O)CN(Cc1ccc(-c2ccccn2)cc1)NC(=O)[C@@H](NC(=O)OC)C(C)(C)C)C(C)(C)C — what was its EC50 (μM), HIV-1ERS104pre (wild-type SI)?
# output 0.002

# input Request the reported EC50 (μM), HIV-1ERS104pre (wild-type SI) associated with CC(C)(C)NC(=O)[C@@H]1C[C@@H]2CCCC[C@@H]2CN1C[C@@H](O)[C@H](Cc1ccccc1)NC(=O)[C@H](CC(N)=O)NC(=O)c1ccc2ccccc2n1
# output 0.008

---

tested on: HIV-1LPV5μM; test: microbe, parasite or virus in culture; assay type: cell-based; conditions: compared to wild-type HIV-1NL4-3
ENDPOINT: n-fold change in EC50, HIV-1LPV5 μM

Cc1cccc(C)c1OCC(=O)N[C@@H](Cc1ccccc1)[C@@H](O)C[C@H](Cc1ccccc1)NC(=O)[C@H](C(C)C)N1CCCNC1=O
> 22
COC(=O)N[C@H](C(=O)N[C@@H](Cc1ccccc1)[C@@H](O)CN(Cc1ccc(-c2ccccn2)cc1)NC(=O)[C@@H](NC(=O)OC)C(C)(C)C)C(C)(C)C
(9)
CCC[C@@]1(CCc2ccccc2)CC(O)=C([C@H](CC)c2cccc(NS(=O)(=O)c3ccc(C(F)(F)F)cn3)c2)C(=O)O1
(1)
COc1ccc2c(c1)OCCCC=CCCCCN(CC(O)C(Cc1ccccc1)NC(=O)OC1COC3OCCC13)S2(=O)=O (centres unmarked) [Compound 14b]
(39)

Moving on to the next compound.
# input # get_value(readout='n-fold change in EC50, HIV-1LPV5 μM', item= CC(C)(C)NC(=O)[C@@H]1C[C@@H]2CCCC[C@@H]2CN1C[C@@H](O)[C@H](Cc1ccccc1)NC(=O)[C@H](CC(N)=O)NC(=O)c1ccc2ccccc2n1 )
# output (6)

---

molecular target: HIV-1 protease (Human immunodeficiency virus type 1 group M subtype B, UniProt P04585); construct: A simple, continuous fluorometric assay for HIV protease; assay: HIV protease enzyme inhibition, fluorometric assay of Toth and Marshall; format: biochemical; settings: Table 4; read-out: Ki
pKi: −log10 of the molar value.
ENDPOINT: pKi

Reference set, count: 3
COc1ccc2c(c1)OCCCCC=CCC(C)CN(CC(O)C(Cc1ccccc1)NC(=O)OC1COC3OCCC13)S2(=O)=O (stereo not drawn) [Compound 20c]
> 9.00
COc1ccc2c(c1)OCCCCCCCC(C)CN(CC(O)C(Cc1ccccc1)NC(=O)OC1COC3OCCC13)S2(=O)=O (stereo not drawn) [Compound 22b]
> 9.00
COc1ccc2c(c1)OCCCCC=CCC(C)(C)CN(CC(O)C(Cc1ccccc1)NC(=O)OC1COC3OCCC13)S2(=O)=O (stereo not drawn) [Compound 20a]
> 7.00

# input Which pKi is reported for this molecule? COc1ccc2c(c1)OCCCCCCCC(C)(C)CN(CC(O)C(Cc1ccccc1)NC(=O)OC1COC3OCCC13)S2(=O)=O (stereo not drawn) [Compound 22a]
# output > 8.00

# input Using the record for COc1ccc2c(c1)OCCCCC=CCC(C)CN(CC(O)C(Cc1ccccc1)NC(=O)OC1COC3OCCC13)S2(=O)=O (stereo not drawn) [Compound 21c] , report its pKi.
# output > 9.00

# input Which pKi value is on record for COc1ccc2c(c1)OCCCCC=CCC(C)CN(CC(O)C(Cc1ccccc1)NC(=O)OC1COC3OCCC13)S2(=O)=O (stereo not drawn) [Compound 20b] ?
# output > 8.00

Hey, just so you know, these numbers are from patent US9617276B2.
